Tested on: MALME-3M melanoma
Assay: NCI tumour cell line growth inhibition, 48 h
Entries annotated with measured TGI
Outcome measure: TGI

compound="CC(C)(C)OC(=O)C1CCC/C1=N/Nc1ccc([N+](=O)[O-])cc1[N+](=O)[O-] (stereo unspecified)" value_observed="> 100 µM"
compound=OCCCCC#Cc1ccccc1C#Cc1ccccn1 value_observed="> 100 µM"
compound=O=C(C[n+]1cccc2cc(Cl)ccc21)c1ccc2c(c1)CCCC2 value_observed="2.63 µM"
compound=O=C(Cc1n[nH]c(=O)c2ccccc12)OCc1c(Cl)cccc1Cl value_observed="> 100 µM"
compound=O=C(O)c1ccc(C(=O)Nc2cccc3ccccc23)c(C(=O)O)c1 value_observed="> 100 µM"
compound="COc1ccc(/C=C2\\N=C(N/N=C\\C(O)C(O)C(O)C(O)CO)NC2=O)cc1 (stereo unspecified)" value_observed="43.4 µM"
compound=C=C(CBr)CCCOCc1ccccc1 value_observed="41.7 µM"
compound=CCOC(=O)O/C(=C\c1ccc(OC)cc1)c1c(OC(=O)OCC)n(C(=O)OCC)c2ccccc12 value_observed="> 100 µM"
compound=CC(C)(C)/C(O)=C\c1nc2ccc(C(F)(F)F)cc2[nH]c1=O value_observed="> 100 µM"
compound=Cc1cc2c(O)c(c1)CN(Cc1ccccc1)Cc1cc(C)cc(c1O)CN(Cc1ccccc1)Cc1cc(C)cc(c1O)CN(Cc1ccccc1)C2 value_observed="> 100 µM"
compound=Cc1ccc(-c2cc(-c3ccccc3)nc(N)n2)c(O)c1 value_observed="> 100 µM"
compound="COC1=CC(=O)N(C(=O)C2CSC(C(CO)NC(=O)c3csc(/C=N/O)n3)=N2)C1 (stereo unspecified)" value_observed="> 100 µM"
compound=CC(C)(C)c1ccc(O)c(CN(Cc2c(O)ccc3ccccc23)C2CCCCC2)c1 value_observed="31.9 µM"
compound=Cc1cc(Cl)nc(Nc2nc3ccccc3[nH]2)n1 value_observed="> 100 µM"
compound="O=C(CC1(O)C(=O)Nc2c(Cl)cc(Cl)cc21)c1ccc(Br)cc1 (stereo unspecified)" value_observed="> 56.1 µM"
compound="CCCCC(CCCCCC(CCCC)C1NC(C)Cc2cc(OC)c(OC)cc21)C1NC(C)Cc2cc(OC)c(OC)cc21 (stereo unspecified)" value_observed="3.94 µM"
compound=O=c1[nH]c(=O)n(COCCOCc2ccccc2)cc1Nc1ccccc1 value_observed="> 100 µM"
compound=C1C[OH+]CC[OH+]CC[OH+]CC[OH+]CC[OH+]CC[OH+]1.[Cl-].[V] value_observed="28.7 µM"
compound=Cc1cc2c(c(S(=O)(=O)c3ccc(Cl)cc3[N+](=O)[O-])c1)NCCC2 value_observed="> 100 µM"
compound=O=c1[nH]nc(-c2ccccc2)n1/N=C\CC/C=N\n1c(-c2ccccc2)n[nH]c1=O value_observed="72.4 µM"
compound=COc1cc2c(/C=C3/C(=O)Nc4c3ccc3ccccc43)c(Cl)n(C)c2cc1C value_observed="19.4 µM"

====

Entries annotated with measured TGI
System: NCI/ADR-RES ovarian
Assay: NCI tumour cell line growth inhibition, 48 h
Outcome measure: TGI

molecule="CC1CCC2C(C)(C)CC3(C)CCC1C23O (configuration not stated)" outcome_measure=TGI value_observed="28 µM"
molecule=S=C(S)NCCNC(=S)S.[Cu+2] outcome_measure=TGI value_observed="> 100 µM"
molecule="COC1=CC(=O)N(C(=O)C2CSC(C(CO)NC(=O)c3csc(/C=N/O)n3)=N2)C1 (configuration not stated)" outcome_measure=TGI value_observed="> 100 µM"
molecule=Nc1nccc2c1ncn2[C@H]1C[C@H](O)[C@@H](CO)O1 outcome_measure=TGI value_observed="> 100 µM"
molecule="CC#CC(O)(C(=O)OC1CCC2CCC1N2C)C1CCCC1 (configuration not stated)" outcome_measure=TGI value_observed="> 10 µM"
molecule="O=C(C1OC1c1ccc(F)cc1)C12CC3CC(CC(C3)C1)C2 (configuration not stated)" outcome_measure=TGI value_observed="48.1 µM"
molecule="O=C1/C(=C\\c2cccc(Oc3ccccc3)c2)SC(c2ccccc2)N1c1ccccc1Cl (configuration not stated)" outcome_measure=TGI value_observed="> 100 µM"
molecule=COc1cccc2[nH]c3c4c(c5c(c3c12)C(=O)N(CN1CCN(C)CC1)C5=O)CCC4 outcome_measure=TGI value_observed="37.5 µM"
molecule=c1csc(-c2cc(-c3ccsc3)c(-c3ccsc3)s2)c1 outcome_measure=TGI value_observed="> 100 µM"
molecule=NC(N)=NN=C(c1ccccc1)c1ccccc1 outcome_measure=TGI value_observed="> 100 µM"
molecule=OCCCC(O)(c1ccccc1)c1ccccc1 outcome_measure=TGI value_observed="> 100 µM"
molecule=ClCc1ccccc1Cn1cnc2c(Cl)nc(Cl)nc21 outcome_measure=TGI value_observed="1.33 µM"
